These entries and their values trace back to the supplement of paper PMC6555819.

# Test system: RARa homodimer (NR concentration 270 nM)
# ASSAY DETAILS: PBM binding z-score (relative to random genomic background probes); higher = stronger binding; sequences stand for … in GC…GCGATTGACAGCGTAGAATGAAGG
Is PBM binding z-score at least 0.9? Then TRUE. If not, FALSE.

>>> print(df.to_string())
                   construct_sequence                           subject_of_test  assigned_label
0  TTACCAAGGTGAAGGGCGTTGATCCCTCTGTAGA  RARa homodimer (NR concentration 270 nM)           FALSE
1  CCTAGTTGGCCAGGAGGTCACACACCGGATATGA  RARa homodimer (NR concentration 270 nM)            TRUE
2  TAGCCTAGGTCATGGGGGCCAGTATAGTGTCGGC  RARa homodimer (NR concentration 270 nM)           FALSE
3  ATATGTAGGTTACACCCGGGTCATTCAGGCTATG  RARa homodimer (NR concentration 270 nM)           FALSE
4  ATATGTTGGTTACATCCGGGTCATTCAGGCTATG  RARa homodimer (NR concentration 270 nM)            TRUE
5  CCTCGGAGGACAGAAGGTCAGAGGTGTCCGCTTT  RARa homodimer (NR concentration 270 nM)           FALSE
6  TCTTGGAGGACACGAAAGGTCAGAGCTCGACATC  RARa homodimer (NR concentration 270 nM)           FALSE
7  CGTCAAAGTTCAAATAAGGTAACGTAAAGCACGC  RARa homodimer (NR concentration 270 nM)            TRUE
8  ATCTTTAGGTAACCAAGTTCAGTGAATGCCGAAC  RARa homodimer (NR concentration 270 nM)           FALSE
9  CTCGAAAGGTCGTGCTCAGGTGAGGATACCAAAC  RARa homodimer (NR concentration 270 nM)           FALSE

----------
# Test system: THRa homodimer (NR concentration 90 nM)
# ASSAY DETAILS: PBM binding z-score (relative to random genomic background probes); higher = stronger binding; sequences stand for … in GC…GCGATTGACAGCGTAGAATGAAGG
Listing of recorded PBM binding z-score by entry.
MEASUREMENT TYPE: PBM binding z-score

>>> print(df.to_string())
                   construct_sequence  reported_measurement
0  TCATATAGGTAAATGCGAGGTGAAAGTCCGATCT                  1.54
1  TGAGACAGGTGAAGGTAACTCAGGTACGCAGTCG                -0.173
2  CCAACTGGGCCAAAGGTCATTGATTCCAATGCTC                 0.791

----------
# Tested on: FXR:RXRa (NR concentration 270 nM, RXRa partner concentration 90 nM)
# ASSAY DETAILS: PBM binding z-score (relative to random genomic background probes); higher = stronger binding; sequences stand for … in GC…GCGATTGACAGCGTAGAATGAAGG
Is PBM binding z-score at least 0.8? Then Condition met. If not, Condition not met.

In [3]: df
Out[3]:
                    construct_sequence                           subject_of_test     assigned_label
 0  TCATCTAGGTAAACAGGTGAAAGTCCGTAAGTTA  FXR:RXRa (NR concentration 270 nM, RXRa partner concentration 90 nM)      Condition met
 1  TCTTATAGGTAATACAGGTGAAAGTCGGCATCTA  FXR:RXRa (NR concentration 270 nM, RXRa partner concentration 90 nM)      Condition met
 2  CAGCCTCGGTCAGGGCCAGTATAGGAGGAACGTT  FXR:RXRa (NR concentration 270 nM, RXRa partner concentration 90 nM)  Condition not met
 3  TCATATAGGTAAAGGTGAAATTCGAACGATATGA  FXR:RXRa (NR concentration 270 nM, RXRa partner concentration 90 nM)      Condition met
 4  CTCGAAAGGTCGTGCTCAGGTGAGTATCCCAAAC  FXR:RXRa (NR concentration 270 nM, RXRa partner concentration 90 nM)      Condition met
 5  TATATTAGTTGATTAGGGCAACCGAAACAGCGGA  FXR:RXRa (NR concentration 270 nM, RXRa partner concentration 90 nM)  Condition not met
 6  TACCCTAGGTCATGCGGGCCAGTATAGTGTCGGC  FXR:RXRa (NR concentration 270 nM, RXRa partner concentration 90 nM)      Condition met
 7  TTACCAAGGTGAGCTGAGGTCTTTGATCCAACTC  FXR:RXRa (NR concentration 270 nM, RXRa partner concentration 90 nM)  Condition not met
 8  ATCTCTAGGTAACCAATTTCAGTGAATGCCGAAC  FXR:RXRa (NR concentration 270 nM, RXRa partner concentration 90 nM)  Condition not met
 9  CCTACTGGGCCAAAAGGGTCATTGATGCCGATAA  FXR:RXRa (NR concentration 270 nM, RXRa partner concentration 90 nM)      Condition met
10  GCTTGTAGATCAAGGTTAAGAATGACTAAGCTAA  FXR:RXRa (NR concentration 270 nM, RXRa partner concentration 90 nM)  Condition not met
11  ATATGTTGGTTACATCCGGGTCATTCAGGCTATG  FXR:RXRa (NR concentration 270 nM, RXRa partner concentration 90 nM)      Condition met
12  AGTCAAGGTTCAGGACGAGGTAACGTAAAGCACG  FXR:RXRa (NR concentration 270 nM, RXRa partner concentration 90 nM)      Condition met
13  GCTTGTAGAACAAGGTTAAGAAAGACTAAGCTAA  FXR:RXRa (NR concentration 270 nM, RXRa partner concentration 90 nM)  Condition not met
14  TCGAGTAGGTTACCAATGGGGCATCCAGCTTTCT  FXR:RXRa (NR concentration 270 nM, RXRa partner concentration 90 nM)  Condition not met
15  TCTGCTAGGTCAGTTGGTCAGCAAACGAGCTGCC  FXR:RXRa (NR concentration 270 nM, RXRa partner concentration 90 nM)      Condition met
16  CGTCCATGGTCAGAGAGGTCAGTGAATGCCGAGT  FXR:RXRa (NR concentration 270 nM, RXRa partner concentration 90 nM)      Condition met
17  TCATATAGGTAAAGGTAAAAGTCGAACGATATGA  FXR:RXRa (NR concentration 270 nM, RXRa partner concentration 90 nM)  Condition not met
18  ATCTCTAGCTAAGACTCAGTTCAGTGAAGAACGC  FXR:RXRa (NR concentration 270 nM, RXRa partner concentration 90 nM)  Condition not met
19  TAGCCTAGGTCAGATCCGGCCAGTATACGCTATA  FXR:RXRa (NR concentration 270 nM, RXRa partner concentration 90 nM)      Condition met
20  TAGACTAGGTCATTCAGGGGCCAGTATAGAAAGC  FXR:RXRa (NR concentration 270 nM, RXRa partner concentration 90 nM)      Condition met
21  CCGACTGGGGCAGAAAGGTTATCATACCATCCGG  FXR:RXRa (NR concentration 270 nM, RXRa partner concentration 90 nM)  Condition not met
22  CCTACTGGGCCAAGGTCATTTATCAGTCAAAGCA  FXR:RXRa (NR concentration 270 nM, RXRa partner concentration 90 nM)      Condition met
23  TAGCCTAAGTCATTGGGCCAGTATAGTACGCATC  FXR:RXRa (NR concentration 270 nM, RXRa partner concentration 90 nM)  Condition not met
24  CCTAGCAGGCCAATCCGGGTCACTCAAGGCTTGA  FXR:RXRa (NR concentration 270 nM, RXRa partner concentration 90 nM)      Condition met
25  CCTTACGGGCCACTGACAGGTTATAGCATTTGGA  FXR:RXRa (NR concentration 270 nM, RXRa partner concentration 90 nM)  Condition not met
